Kindly return Met if reported melting point is no lower than 200 °C; return Not met if it is lower.

- N#CCCCC(=O)N[C@H]1CC[C@H](CCN2CCN(c3cc(F)cc(F)c3)CC2)CC1 [Example 254]: Not met
- N#CCC(=O)N[C@H]1CC[C@@H](CCN2CC=C(c3ccc(F)cc3)CC2)CC1: Not met
- CC(=O)CN1CCC(CCN2CCN(c3cccc(C)c3C#N)CC2)CC1.Cl.Cl: Met
- O=C(N[C@H]1CC[C@H](CCN2CCN(c3cccc(C(F)(F)F)c3)CC2)CC1)C1=COCC1 [Example 564]: Not met
- COCC(=O)N[C@H]1CC[C@H](CCN2CCN(c3ccccc3)CC2)CC1 [Example 60]: Not met
- N#CCC(=O)N[C@H]1CC[C@H](CCN2CCN(c3ccc(C(F)(F)F)cc3)CC2)CC1 [Example 274]: Met
- CC(=O)CN1CCC(CCN2CCN(c3cc(F)ccc3C)CC2)CC1.Cl.Cl: Met
- CC(=O)CN1CCC(CCN2CCN(c3cc(C)cc(F)c3)CC2)CC1.Cl.Cl: Met
- N#CCC(=O)N[C@H]1CC[C@H](CCN2CCN(c3cccc(C(F)F)c3)CC2)CC1 [Example 354]: Not met

* * *

Param label: returns 1 when melting point < 200 °C, returns 0 otherwise, including exact equality.

• O=C(CC(F)(F)F)N[C@H]1CC[C@H](CCN2CCN(c3cccc(F)c3F)CC2)CC1 [Example 446] = 0
• COC(C)(C)C(=O)N[C@H]1CC[C@H](CCN2CCN(c3cccc(C(F)(F)F)c3)CC2)CC1 [Example 77] = 1
• Cc1ccccc1N1CCN(CC[C@H]2CC[C@H](NC(=O)C3=CCCC3)CC2)CC1 [Example 556] = 1
• Cc1ccc(N2CCN(CC[C@H]3CC[C@H](NC(=O)C4=CCCC4)CC3)CC2)cc1 [Example 475] = 0
• N#CCC(=O)N[C@H]1CC[C@H](CCN2CCN(c3cccc(C#N)c3)CC2)CC1 [Example 90] = 1
• COCCCC(=O)N[C@H]1CC[C@H](CCN2CCN(c3cc(F)cc(Cl)c3)CC2)CC1 [Example 740] = 1
• O=C(N[C@H]1CC[C@H](CCN2CCN(c3cccc(C(F)(F)F)c3F)CC2)CC1)C1=COCCC1 [Example 476] = 0
• COCCCC(=O)N[C@H]1CC[C@H](CCN2CCN(c3cc(C(F)(F)F)ccc3F)CC2)CC1 [Example 616] = 1

* * *

Each entry below carries its reported melting point.
Outcome measure: melting point (°C)

- COCCCC(=O)N[C@H]1CC[C@H](CCN2CCN(c3cc(F)c(F)c(F)c3F)CC2)CC1 [Example 93]: 201
- N#CC1CC1C(=O)N[C@H]1CC[C@H](CCN2CCN(c3cc(C(F)(F)F)ccc3F)CC2)CC1 (some centres unmarked) [Example 763]: 196
- N#CCC(=O)N[C@H]1CC[C@H](CCN2CCN(c3ccc4c(c3)OCCO4)CC2)CC1 [Example 316]: 208
- CC(=O)CN1CCC(CCN2CCN(c3cccc(CO)c3)CC2)CC1 [Example 640]: 84
- N#Cc1ccc2c(c1)CCN(CC[C@H]1CC[C@H](NC(=O)CC(F)(F)F)CC1)C2 [Example 110]: 215
- N#CCC(=O)N[C@H]1CC[C@H](CCN2CC=C(c3cccc(C(F)(F)F)c3)CC2)CC1: 149
- CCOCC(=O)N[C@H]1CC[C@H](CCN2CCN(c3ccccc3C#N)CC2)CC1 [Example 73]: 96
